Target: GlcNAc(a1-6)Gal(b1-4)GlcNAc
Assay: glycan array binding signal (z-score within array); higher = stronger binding
Conditions: glycan notation: IUPAC condensed, linker removed
Only a selection was taken, and the strongest signals are over-represented in it overall.
Quick reference: glycan array binding signal (z-score) of the listed items.
MEASURED PARAMETER: glycan array binding signal (z-score)

{"BINDER": "AT1G15820(NC) (Arabidopsis thaliana) (protein) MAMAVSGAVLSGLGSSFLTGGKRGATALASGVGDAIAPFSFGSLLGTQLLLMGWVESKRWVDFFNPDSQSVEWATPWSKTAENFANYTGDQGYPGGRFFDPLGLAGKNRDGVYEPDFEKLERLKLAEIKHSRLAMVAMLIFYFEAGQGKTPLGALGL", "MEASURED PARAMETER": "glycan array binding signal (z-score)", "EXPERIMENTAL RESULT": -0.626}
{"BINDER": "Ficolin B (Rattus norvegicus), P57756 (protein) MVLGSAALFVLSLCVTELTLHAADTCPEVKVLDLEGSNKLTILQGCPGLPGALGPKGEAGAKGDRGESGLPGHPGKAGPTGPKGDRGEKGVRGEKGDTGPSQSCATGPRTCKELLTRGYFLTGWYTIYLPDCRPLTVLCDMDTDGGGWTVFQRRIDGTVDFFRDWTSYKQGFGSQLGEFWLGNDNIHALTTQGTNELRVDLADFDGNHDFAKYSSFQIQGEAEKYKLILGNFLGGGAGDSLTSQNNMLFSTKDQDNDQGSSNCAVRYHGAWWYSDCHTSNLNGLYLRGLHKSYANGVNWKSWKGYNYSYKVSEMKVRLI", "MEASURED PARAMETER": "glycan array binding signal (z-score)", "EXPERIMENTAL RESULT": 0.051}
{"BINDER": "Tachylectin-2 (Tachypleus tridentatus), TAL2_TACTR (protein) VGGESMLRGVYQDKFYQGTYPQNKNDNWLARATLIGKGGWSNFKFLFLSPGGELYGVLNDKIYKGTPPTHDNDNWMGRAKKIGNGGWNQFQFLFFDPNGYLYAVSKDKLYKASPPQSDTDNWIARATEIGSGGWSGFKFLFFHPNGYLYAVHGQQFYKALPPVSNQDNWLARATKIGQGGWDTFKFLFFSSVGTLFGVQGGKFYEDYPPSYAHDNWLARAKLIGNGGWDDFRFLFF", "MEASURED PARAMETER": "glycan array binding signal (z-score)", "EXPERIMENTAL RESULT": 4.99}
{"BINDER": "Eosinophil cationic protein (ECP) (Homo sapiens), P12724 (protein) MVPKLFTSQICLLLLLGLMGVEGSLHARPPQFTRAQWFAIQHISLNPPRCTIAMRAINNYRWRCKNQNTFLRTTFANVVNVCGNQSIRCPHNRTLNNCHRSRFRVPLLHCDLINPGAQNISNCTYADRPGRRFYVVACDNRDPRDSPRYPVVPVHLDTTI", "MEASURED PARAMETER": "glycan array binding signal (z-score)", "EXPERIMENTAL RESULT": 3.15}
{"BINDER": "HPL (Tachypleus tridentatus) (protein) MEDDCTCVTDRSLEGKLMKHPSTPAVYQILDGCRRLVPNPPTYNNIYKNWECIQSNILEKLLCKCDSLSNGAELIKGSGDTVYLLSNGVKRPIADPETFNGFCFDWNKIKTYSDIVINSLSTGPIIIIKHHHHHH", "MEASURED PARAMETER": "glycan array binding signal (z-score)", "EXPERIMENTAL RESULT": -0.429}
{"BINDER": "HFR-3 (Triticum aestivum) (protein) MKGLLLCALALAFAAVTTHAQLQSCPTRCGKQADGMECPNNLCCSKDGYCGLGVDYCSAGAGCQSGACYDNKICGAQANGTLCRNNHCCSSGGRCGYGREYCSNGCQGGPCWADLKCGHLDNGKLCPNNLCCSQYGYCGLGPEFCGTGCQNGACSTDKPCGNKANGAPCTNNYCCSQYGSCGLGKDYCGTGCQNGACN", "MEASURED PARAMETER": "glycan array binding signal (z-score)", "EXPERIMENTAL RESULT": -0.582}
{"BINDER": "Ficolin A (Rattus norvegicus), Q9WTS8 (protein) MWWPMLWAFPVLLCLCSSQALGQESGACPDVKIVGLGAQDKVAVIQSCPSFPGPPGPKGEPGSPAGRGERGLQGSPGKMGPPGSKGEPGTMGPPGVKGEKGERGTASPLGQKELGDALCRRGPRSCKDLLTRGIFLTGWYTIYLPDCRPLTVLCDMDVDGGGWTVFQRRVDGSINFYRDWDSYKRGFGNLGTEFWLGNDYLHLLTANGNQELRVDLREFQGQTSFAKYSSFQVSGEQEKYKLTLGQFLEGTAGDSLTKHNNMAFSTHDQDNDTNGGKNCAALFHGAWWYHDCHQSNLNGRYLPGSHESYADGINWLSGRGHRYSYKVAEMKIRAS", "MEASURED PARAMETER": "glycan array binding signal (z-score)", "EXPERIMENTAL RESULT": 17.3}
{"BINDER": "LcH (Lens culinaris), P02870 (protein) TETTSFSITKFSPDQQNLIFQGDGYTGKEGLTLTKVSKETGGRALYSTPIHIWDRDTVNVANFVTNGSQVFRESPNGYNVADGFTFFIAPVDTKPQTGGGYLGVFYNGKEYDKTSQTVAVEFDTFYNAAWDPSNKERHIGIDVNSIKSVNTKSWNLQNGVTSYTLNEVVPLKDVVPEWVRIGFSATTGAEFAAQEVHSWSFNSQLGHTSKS", "MEASURED PARAMETER": "glycan array binding signal (z-score)", "EXPERIMENTAL RESULT": -0.102}
{"BINDER": "CLEC-1 (Homo sapiens), Q9NZH3 (protein) MQAKYSSTRDMLDDDGDTTMSLHSQASATTRHPEPRRTEHRAPSSTWRPVALTLLTLCLVLLIGLAAWGLLFFQYYQLSNTGQDTISQMEERLGNTSQELQSLQVQNIKLAGSLQHVAEKLCRELYNKAGAHRCSPCTEQWKWHGDNCYQFYKDSKSWEDCKYFCLSENSTMLKINKQEDLEFAASQSYSEFFYSYWTGLLRPDSGKAWLWMDGTPFTSELFHIIIDVTSPRSRDCVAILNGMIFSKDCKELKRCVCERRAGMVKPESLHVPPETLGEGD", "MEASURED PARAMETER": "glycan array binding signal (z-score)", "EXPERIMENTAL RESULT": 2.11}
{"BINDER": "ERGIC1-EDTA (Homo sapiens), Q969X5 (protein) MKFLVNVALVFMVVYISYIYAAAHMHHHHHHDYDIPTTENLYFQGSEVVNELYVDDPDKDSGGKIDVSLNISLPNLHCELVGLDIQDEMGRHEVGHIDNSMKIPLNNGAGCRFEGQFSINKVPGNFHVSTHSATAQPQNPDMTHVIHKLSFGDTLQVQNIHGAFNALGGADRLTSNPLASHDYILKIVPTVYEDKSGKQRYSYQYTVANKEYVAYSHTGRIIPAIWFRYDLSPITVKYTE", "MEASURED PARAMETER": "glycan array binding signal (z-score)", "EXPERIMENTAL RESULT": -0.295}
